Where do these numbers come from? They come from patent US20250250357A1.

test-system: T1, human MSLN-R2-his protein (human, UniProt Q13421 391-486)
T1 construct: Region 2 of human mesothelin, made in HEK293E cells, His-tagged; also called human MSLN-R2 protein; hMSLN-R2-his; not shown: His tag
T1 sequence (Q13421 other isoform, or with tags, fused parts or gaps): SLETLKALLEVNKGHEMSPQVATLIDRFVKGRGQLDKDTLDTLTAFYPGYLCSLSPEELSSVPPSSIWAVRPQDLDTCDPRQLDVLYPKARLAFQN
method: ELISA on coated MSLN-R2; antibody 10 nM
measure: OD450

// sample S009-F8-33.12 (antibody, human IgG1, kappa, V domains shown) VH: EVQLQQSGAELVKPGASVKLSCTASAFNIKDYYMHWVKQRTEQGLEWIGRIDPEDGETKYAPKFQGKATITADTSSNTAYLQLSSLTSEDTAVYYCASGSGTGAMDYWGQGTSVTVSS VL: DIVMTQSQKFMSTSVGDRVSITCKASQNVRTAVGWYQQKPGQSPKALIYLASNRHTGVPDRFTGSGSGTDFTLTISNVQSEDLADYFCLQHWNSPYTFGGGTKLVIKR , its OD450 was 0.04 OD450

// sample S009-F8-18.9 (antibody, human IgG1, kappa, V domains shown) VH: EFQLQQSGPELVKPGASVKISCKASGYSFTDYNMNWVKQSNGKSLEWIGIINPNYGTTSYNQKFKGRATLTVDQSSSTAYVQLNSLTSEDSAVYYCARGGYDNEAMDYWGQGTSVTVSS VL: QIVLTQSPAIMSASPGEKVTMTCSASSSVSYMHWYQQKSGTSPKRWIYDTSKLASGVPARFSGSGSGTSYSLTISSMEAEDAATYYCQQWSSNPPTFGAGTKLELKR , its OD450 was 0.06 OD450

// sample S009-F8-4.5 (antibody, human IgG1, kappa, V domains shown) VH: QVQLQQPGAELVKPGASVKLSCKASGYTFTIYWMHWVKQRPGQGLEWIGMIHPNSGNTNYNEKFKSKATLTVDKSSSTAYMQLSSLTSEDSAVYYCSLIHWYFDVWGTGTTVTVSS VL: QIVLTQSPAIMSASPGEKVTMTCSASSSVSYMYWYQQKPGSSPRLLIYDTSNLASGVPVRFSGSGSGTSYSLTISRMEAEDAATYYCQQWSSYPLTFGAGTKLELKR , its OD450 was 0.06 OD450

// sample S009-F8-13.8 (antibody, human IgG1, kappa, V domains shown) VH: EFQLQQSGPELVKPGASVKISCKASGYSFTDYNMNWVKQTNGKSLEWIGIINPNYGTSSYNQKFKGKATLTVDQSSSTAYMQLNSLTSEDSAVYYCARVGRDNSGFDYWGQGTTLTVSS VL: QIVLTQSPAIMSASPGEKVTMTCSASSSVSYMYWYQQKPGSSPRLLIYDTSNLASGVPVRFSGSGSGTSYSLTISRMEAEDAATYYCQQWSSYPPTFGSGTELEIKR , its OD450 was 0.05 OD450

// sample S009-F8-5.15 (antibody, human IgG1, kappa, V domains shown) VH: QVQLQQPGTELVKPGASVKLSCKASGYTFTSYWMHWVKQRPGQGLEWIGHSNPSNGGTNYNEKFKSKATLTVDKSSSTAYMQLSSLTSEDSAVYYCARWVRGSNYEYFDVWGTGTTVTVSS VL: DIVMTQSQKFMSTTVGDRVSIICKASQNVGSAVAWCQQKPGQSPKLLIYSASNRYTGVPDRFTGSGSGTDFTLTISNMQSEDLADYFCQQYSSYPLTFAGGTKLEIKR , its OD450 was 0.05 OD450

// sample S009-F8-27.1 (antibody, human IgG1, kappa, V domains shown) VH: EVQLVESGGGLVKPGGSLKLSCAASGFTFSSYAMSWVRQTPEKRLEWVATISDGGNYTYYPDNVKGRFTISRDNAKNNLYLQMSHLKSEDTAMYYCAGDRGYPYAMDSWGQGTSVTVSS VL: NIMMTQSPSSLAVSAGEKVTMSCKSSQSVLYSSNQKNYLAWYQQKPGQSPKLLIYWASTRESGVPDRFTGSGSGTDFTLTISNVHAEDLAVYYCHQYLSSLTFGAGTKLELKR , its OD450 was 0.05 OD450

// sample S009-F8-32.3 (antibody, human IgG1, kappa, V domains shown) VH: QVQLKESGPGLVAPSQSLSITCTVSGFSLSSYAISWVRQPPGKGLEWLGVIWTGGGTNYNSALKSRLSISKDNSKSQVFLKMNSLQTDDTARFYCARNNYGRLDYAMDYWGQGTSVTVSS VL: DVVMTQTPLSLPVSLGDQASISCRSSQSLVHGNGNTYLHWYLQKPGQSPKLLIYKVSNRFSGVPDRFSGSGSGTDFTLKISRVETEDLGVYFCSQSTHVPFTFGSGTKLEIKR , its OD450 was 0.05 OD450

// sample Tab106 (YP218, hIgG1) (antibody, V domains shown, also called YP218 human IgG1 antibody) VH: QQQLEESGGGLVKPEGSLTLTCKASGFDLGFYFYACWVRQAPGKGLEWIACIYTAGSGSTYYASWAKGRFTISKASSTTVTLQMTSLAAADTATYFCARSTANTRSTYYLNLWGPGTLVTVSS VL: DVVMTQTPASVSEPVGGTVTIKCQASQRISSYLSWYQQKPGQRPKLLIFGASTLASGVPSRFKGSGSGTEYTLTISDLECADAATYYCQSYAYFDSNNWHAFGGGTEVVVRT , its OD450 was 0.06 OD450

// sample S009-F8-22.23 (antibody, human IgG1, kappa, V domains shown) VH: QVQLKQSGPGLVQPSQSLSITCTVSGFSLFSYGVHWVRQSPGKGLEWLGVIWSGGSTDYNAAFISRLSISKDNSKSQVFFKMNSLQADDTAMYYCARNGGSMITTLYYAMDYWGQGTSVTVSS VL: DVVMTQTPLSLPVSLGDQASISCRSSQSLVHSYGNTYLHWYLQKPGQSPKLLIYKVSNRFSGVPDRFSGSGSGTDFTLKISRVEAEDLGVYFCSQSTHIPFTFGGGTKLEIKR , its OD450 was 0.11 OD450

// sample S009-F8-28.23 (antibody, human IgG1, kappa, V domains shown) VH: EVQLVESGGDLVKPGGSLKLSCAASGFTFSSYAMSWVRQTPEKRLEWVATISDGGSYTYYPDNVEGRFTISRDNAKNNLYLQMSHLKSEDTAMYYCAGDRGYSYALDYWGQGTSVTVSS VL: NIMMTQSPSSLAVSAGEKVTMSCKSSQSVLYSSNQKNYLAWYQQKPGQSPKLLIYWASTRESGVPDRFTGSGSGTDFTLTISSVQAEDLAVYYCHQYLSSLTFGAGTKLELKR , its OD450 was 0.04 OD450
